These entries and their values trace back to PubChem BioAssay AID1963961.

test system: K98450-129-R-PDC multicell spheroids, viability; test: Anticancer human tumor K98450-129-R-PDC patient-derived colon adenocarcinoma cell line growth inhibition [PI3K]; conditions: second compound 1 µM; first compound 1 µM; hits give low values
Measured viability, T/C, listed per entry for reference.

compound="CC(Cn1ccc(-c2ccc(C#N)c(Cl)c2)n1)NC(=O)c1cc(C(C)O)[nH]n1 (stereo not drawn) + CC(Nc1ncnc2nc[nH]c12)c1cc2cccc(Cl)c2c(=O)n1-c1ccccc1" target_entity="K98450-129-R-PDC multicell spheroids, viability" metric="viability, T/C" result=99.1%
compound="Cn1nccc1Nc1nccc(-c2ccn(C(CO)c3ccc(Cl)c(F)c3)c(=O)c2)n1 (stereo not drawn) + CC(Nc1ncnc2nc[nH]c12)c1cc2cccc(Cl)c2c(=O)n1-c1ccccc1" target_entity="K98450-129-R-PDC multicell spheroids, viability" metric="viability, T/C" result=85.4%

Alright, here's another compound for you.
stdin: Please supply the value of reported viability, T/C for the item CC(C)NCC(C(=O)N1CCN(c2ncnc3c2C(C)CC3O)CC1)c1ccc(Cl)cc1 (stereo not drawn) + Cc1nc(NC(=O)N2CCCC2C(N)=O)sc1-c1ccnc(C(C)(C)C(F)(F)F)c1
stdout: 89.6%

----------
system: K98450-129-R-PDC multicell spheroids, viability; test: Anticancer human tumor K98450-129-R-PDC cell line growth inhibition [PI3K]; settings: second compound 0.0316 µM; first compound 10 µM; active = viability on the fitted dose curve at most 10% of control; inactive = the rest;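 also: spheroids exposed to agents for seven days before read-out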
# output must be one of TRUE = active, FALSE = inactive

Solved entries:
compound="CNC(=O)c1ccc(N2C(=S)N(c3ccc(C#N)c(C(F)(F)F)c3)C(=O)C2(C)C)cc1F + Cc1nc(NC(=O)N2CCCC2C(N)=O)sc1-c1ccnc(C(C)(C)C(F)(F)F)c1" label_class=FALSE
compound="CC1(C)CCC(CN2CCN(c3ccc(C(=O)NS(=O)(=O)c4ccc(NCC5CCOCC5)c([N+](=O)[O-])c4)c(Oc4cnc5[nH]ccc5c4)c3)CC2)=C(c2ccc(Cl)cc2)C1 + COc1c(OCCCN2CCOCC2)ccc2c3n(c(=NC(=O)c4cnc(N)nc4)nc12)CCN3" label_class=FALSE
compound="CC1(C)CCC(Nc2ncc(C(F)(F)F)c(-c3c[nH]c4c(P(C)(C)=O)c(C#N)ccc34)n2)CN1 (centres undefined) + COc1c(OCCCN2CCOCC2)ccc2c3n(c(=NC(=O)c4cnc(N)nc4)nc12)CCN3" label_class=FALSE

stdin: State the result this test recorded for CCCS(=O)(=O)Nc1ccc(F)c(C(=O)c2c[nH]c3ncc(-c4ccc(Cl)cc4)cc23)c1F + COc1c(OCCCN2CCOCC2)ccc2c3n(c(=NC(=O)c4cnc(N)nc4)nc12)CCN3 .
stdout: TRUE

----------
test system: K98450-129-R-PDC multicell spheroids, viability; assay: Anticancer human tumor K98450-129-R-PDC cell line growth inhibition [PI3K]; conditions: second compound 0.01 µM; first compound 0.316 µM; hits give low values;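 also: spheroids exposed to agents for seven days before read-out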
Measured viability, T/C, listed per entry for reference.
Enter your answer as a number in %; do not include the unit.

The cases that follow already have their viability, T/C on record.
molecule="C#Cc1c(F)ccc2cc(O)cc(-c3ncc4c(N5CC6CCC(C5)N6)nc(OCC56CCCN5CC(F)C6)nc4c3F)c12 (configuration not stated) + COc1c(OCCCN2CCOCC2)ccc2c3n(c(=NC(=O)c4cnc(N)nc4)nc12)CCN3" target_entity="K98450-129-R-PDC multicell spheroids, viability" result_number=99.9
molecule="CNC(=O)c1ccc(N2C(=S)N(c3ccc(C#N)c(C(F)(F)F)c3)C(=O)C2(C)C)cc1F + CC(Nc1ccc2c(c1)OCCn1cc(N3C(=O)OCC3C(F)F)nc1-2)C(N)=O" target_entity="K98450-129-R-PDC multicell spheroids, viability" result_number=107
molecule="C#Cc1c(F)ccc2cc(O)cc(-c3ncc4c(N5CC6CCC(C5)N6)nc(OCC56CCCN5CC(F)C6)nc4c3F)c12 (configuration not stated) + CC(Nc1ccc2c(c1)OCCn1cc(N3C(=O)OCC3C(F)F)nc1-2)C(N)=O" target_entity="K98450-129-R-PDC multicell spheroids, viability" result_number=109

stdin: Please supply the value of reported viability, T/C for the item Cn1nccc1Nc1nccc(-c2ccn(C(CO)c3ccc(Cl)c(F)c3)c(=O)c2)n1 (configuration not stated) + CC(Nc1ccc2c(c1)OCCn1cc(N3C(=O)OCC3C(F)F)nc1-2)C(N)=O
stdout: 99.1

stdin: Please supply the value of reported viability, T/C for the item CC1(C)CCC(Nc2ncc(C(F)(F)F)c(-c3c[nH]c4c(P(C)(C)=O)c(C#N)ccc34)n2)CN1 (configuration not stated) + CC(Nc1ccc2c(c1)OCCn1cc(N3C(=O)OCC3C(F)F)nc1-2)C(N)=O
stdout: 92.7

stdin: Please supply the value of reported viability, T/C for the item CNC(=O)c1ccc(N2C(=S)N(c3ccc(C#N)c(C(F)(F)F)c3)C(=O)C2(C)C)cc1F + COc1c(OCCCN2CCOCC2)ccc2c3n(c(=NC(=O)c4cnc(N)nc4)nc12)CCN3
stdout: 80.1
